- TEST: A CellTox Green Cytotoxicity Assay to monitor cytotoxicity in HEK293 cells - 0 hour (AID 1224869); note: nearly all actives have a fitted effect of over 50% in size
- TEST_SETTINGS: CellTox Green fluorescence; series mostly up to 76.8 µM
The source made the active and inactive calls. Calls come from the whole dose curve; as a rule, active = well fitted activation curve with a large enough effect in the repeat runs; inconclusive = weak or mixed curves; inactive = flat fitted curve, though single readings scatter.

[
  {
    "COMPOUND": "O=C(O)c1ccccc1O",
    "outcome": "inactive"
  },
  {
    "COMPOUND": "CCCCCCCCn1cc[n+](C)c1",
    "outcome": "inactive"
  },
  {
    "COMPOUND": "Nc1ccc(-c2ccc(N)cc2)cc1",
    "outcome": "inactive"
  },
  {
    "COMPOUND": "CC[n+]1ccccc1",
    "outcome": "inactive"
  },
  {
    "COMPOUND": "Cc1cc(-c2ccc(N)c(C)c2)ccc1N",
    "outcome": "inactive"
  },
  {
    "COMPOUND": "O=C(O)c1nc(Cl)ccc1Cl",
    "outcome": "inactive"
  },
  {
    "COMPOUND": "COc1ccc(N)cc1",
    "outcome": "inactive"
  },
  {
    "COMPOUND": "CCC[N+]1(C)CCCC1",
    "outcome": "inactive"
  },
  {
    "COMPOUND": "C[N+](C)(C)Cc1ccccc1",
    "outcome": "inactive"
  },
  {
    "COMPOUND": "CC(Cl)(Cl)C(=O)O",
    "outcome": "inactive"
  },
  {
    "COMPOUND": "CC(=O)O",
    "outcome": "inactive"
  },
  {
    "COMPOUND": "CC[N+](CC)(CC)CC",
    "outcome": "inactive"
  },
  {
    "COMPOUND": "OCCOc1ccccc1",
    "outcome": "inactive"
  },
  {
    "COMPOUND": "CCCCCCCCCCCCOS(=O)(=O)O",
    "outcome": "inactive"
  },
  {
    "COMPOUND": "CCC[N+]1(C)CCCCC1",
    "outcome": "inactive"
  },
  {
    "COMPOUND": "CCCCn1cc[n+](C)c1C",
    "outcome": "inactive"
  },
  {
    "COMPOUND": "O=P1(N(CCCl)CCCl)NCCCO1 (stereo not given)",
    "outcome": "inactive"
  },
  {
    "COMPOUND": "O=C(O)COc1ccc(Cl)cc1Cl",
    "outcome": "inactive"
  },
  {
    "COMPOUND": "CC(=O)[O][Hg][c]1ccccc1",
    "outcome": "inactive"
  },
  {
    "COMPOUND": "O=S(=O)(O)O",
    "outcome": "inactive"
  },
  {
    "COMPOUND": "CNC",
    "outcome": "inactive"
  },
  {
    "COMPOUND": "O=[N+]([O-])O",
    "outcome": "inactive"
  },
  {
    "COMPOUND": "CCCCCCCCCCCCCC[P+](CCCCCC)(CCCCCC)CCCCCC",
    "outcome": "inactive"
  },
  {
    "COMPOUND": "COCC(=O)N(c1c(C)cccc1C)C(C)C(=O)OC (stereo not given)",
    "outcome": "inactive"
  },
  {
    "COMPOUND": "CCCCCCn1cc[n+](C)c1",
    "outcome": "inactive"
  },
  {
    "COMPOUND": "CCCC[n+]1ccc(C)cc1",
    "outcome": "inactive"
  },
  {
    "COMPOUND": "Nc1ccccc1",
    "outcome": "inactive"
  },
  {
    "COMPOUND": "Cc1cc(Cl)ccc1OCC(=O)O",
    "outcome": "inactive"
  },
  {
    "COMPOUND": "CCCCCCCCCCCC(=O)O",
    "outcome": "inactive"
  },
  {
    "COMPOUND": "CCCCn1cc[n+](C)c1",
    "outcome": "inactive"
  },
  {
    "COMPOUND": "O=[N+]([O-])c1ccccc1O",
    "outcome": "inactive"
  },
  {
    "COMPOUND": "COP(=O)(OC)C(O)C(Cl)(Cl)Cl (stereo not given)",
    "outcome": "inactive"
  },
  {
    "COMPOUND": "CCCn1cc[n+](C)c1",
    "outcome": "inactive"
  },
  {
    "COMPOUND": "O=C(O)CC(O)(CC(=O)O)C(=O)O",
    "outcome": "inactive"
  },
  {
    "COMPOUND": "O=C(O)CCl",
    "outcome": "inactive"
  }
]
